- Tested on: K-562 leukemia
- MEASUREMENT_DESCRIPTION: NCI tumour cell line growth inhibition, 48 h

STRUCTURE_STRING	TGI
CCOc1cccc(/C=N/NC(=O)Cc2ccc(Nc3ccnc(C(F)(F)F)c3)cc2)c1O	15 µM
Brc1ccc2[nH]cc(-c3csc(-c4c[nH]c5ccc(Br)cc45)n3)c2c1	3.43 µM
O/N=C/[C@H]1COC2(CCCCC2)O1	> 100 µM

---

- System: OVCAR-5 ovarian
- MEASUREMENT_DESCRIPTION: NCI tumour cell line growth inhibition, 48 h
The following compounds are listed with their measured TGI values.

COMPOUND	TGI
CN1CCN(CCCOc2ccc3ncnc(Nc4ccc(Oc5cccc(F)c5)c(Cl)c4)c3c2)CC1	3.29 µM
Cc1cc(N(CCC#N)CCC#N)ccc1/C=C/C(=O)Nc1ccccc1Cl	> 100 µM
CCOC(=O)c1c(-c2ccc(OC)cc2)c(C#N)c(=S)n(C2OC(CO)C(O)C(O)C2O)c1C (configuration not stated)	> 100 µM
CN(C)C(=O)/N=C1\SC(=Nc2ccccc2)C(=Nc2ccccc2)N1c1ccc([N+](=O)[O-])cc1	> 100 µM
CC(C)(C)[Si](C)(C)OC1CCOC1(O)c1ccccn1 (configuration not stated)	> 100 µM
C(/C=C/N1CCCC1)=C\c1nc(N2CCCC2)c2ccccc2n1	28.9 µM
N#Cc1ccnc(C(=O)N2CCCC2C(=O)O)c1 (configuration not stated)	> 100 µM

Origin of measurements: PubChem BioAssay (NCI)
